Attribution: the RNAGym collection of RNA variant scans (doi:10.1073/pnas.2313332121)

The variants listed here are annotated with their polymerase ribozyme fitness (log ratio).
B1: TPR 5TU (parent)
chain: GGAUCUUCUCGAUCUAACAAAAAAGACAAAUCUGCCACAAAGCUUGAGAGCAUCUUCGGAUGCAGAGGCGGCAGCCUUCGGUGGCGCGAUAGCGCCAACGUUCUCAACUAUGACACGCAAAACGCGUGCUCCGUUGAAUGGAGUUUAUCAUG

- Variants of: B1
- protocol_summary: polymerase ribozyme fitness, log enrichment relative to wild type (log ratio); higher = more active; in vitro selection for triplet polymerase activity
Variants at the floor of the assay were thinned out.
The answer should be a number; do not append a unit.

Please review the entries below; each comes with its answer.
A20C G48C G62A :: -2.35
G92U U145A :: 0.602
G46C G136A :: -0.148

So what's the measured polymerase ribozyme fitness (log ratio) for this one? A12C A21G C51U G83U
-2.15

Another variant: G58U G83A C85U
-0.262

Same for G58C U134G
-3.93
